Test: cn = amount concentration of the nth substance listed, in mol/dm3
Settings: 293 K, Ring tensiometer, c1 = 5.01e-06
attribute measured: surface tension liquid-gas (mN/m)
Give bare numbers, in mN/m.

>  <molecule>
CCCCCCCCCCCCCC[N+](C)(C)C.[Br-] [tetradecyltrimethylammonium bromide] + O

>  <surface tension liquid-gas [mN/m]>
71.7

$$$$

Please look at the items below and tell me surface tension liquid-gas for each one, in order.
1. CCCCCCCCCCCCCCCC[n+]1ccccc1.[Br-] [1-hexadecylpyridinium bromide] + O
2. CCCCCCCCCCCC[N+](C)(C)Cc1ccccc1.[Br-] [benzenemethanaminium, N-dodecyl-N,N-dimethyl, bromide] + O
3. CCCCCCCCCCCCN(C)CC(=O)[O-].[Na+] [sodium laurylsarcosinate] + O
4. CCCCCCCCCCCCCCCCS(=O)(=O)[O-].[Na+] [sodium hexadecylsulfonate] + O

Result:
[71.7, 70.7, 71.6, 72.5]

Task: Item CCCCCCCCCCCC[N+](C)(C)CC.[Br-] [dodecyl ethyl dimethylammonium bromide] + O has what recorded surface tension liquid-gas?
Result: 72.2

====

Assay: cn = amount concentration of the nth substance listed, in mol/dm3
Settings: 293 K, Ring tensiometer, c1 = 0.00398
Criterion: surface tension liquid-gas strictly under 40 mN/m. Met: T. Not met: F.

>  <molecule>
CCCCCCCCCCCCCC[N+](C)(C)C.[Br-] [tetradecyltrimethylammonium bromide] + O

>  <class label>
T

$$$$
>  <molecule>
CCCCCCCCCCCC[N+](C)(C)CC.[Br-] [dodecyl ethyl dimethylammonium bromide] + O

>  <class label>
F

$$$$
>  <molecule>
CCCCCCCCCCCCOS(=O)(=O)[O-].[Na+] [sodium dodecyl sulfate] + O

>  <class label>
F

$$$$
>  <molecule>
CCCCCCCCCCCCN(C)CC(=O)[O-].[Na+] [sodium laurylsarcosinate] + O

>  <class label>
T

$$$$
>  <molecule>
CCCCCCCCCCCC[N+](C)(C)Cc1ccccc1.[Br-] [benzenemethanaminium, N-dodecyl-N,N-dimethyl, bromide] + O

>  <class label>
T

$$$$

Switching to the query record.
Task: Lab note: surface tension liquid-gas threshold 40 mN/m. Does this molecule come in strictly under it? CCCCCCCCCCCCCCCC[n+]1ccccc1.[Br-] [1-hexadecylpyridinium bromide] + O
Result: F

====

Assay: cn = amount concentration of the nth substance listed, in mol/dm3
Conditions: 293 K, Ring tensiometer, c1 = 0.0001
Numbers after ± are expanded uncertainties.
I'd be grateful if you could share measured surface tension liquid-gas for these entries.
// return the numeric value with its unit appended

Would you please look over these solved cases?
>  <molecule>
CCCCCCCCCCCCOS(=O)(=O)[O-].[Na+] [sodium dodecyl sulfate] + O

>  <surface tension liquid-gas>
72.24 ± 1.3 mN/m

$$$$
>  <molecule>
CCCCCCCCCCCCN(C)CC(=O)[O-].[Na+] [sodium laurylsarcosinate] + O

>  <surface tension liquid-gas>
65.5 ± 1.3 mN/m

$$$$
>  <molecule>
CCCCCCCCCCCC[N+](C)(C)Cc1ccccc1.[Br-] [benzenemethanaminium, N-dodecyl-N,N-dimethyl, bromide] + O

>  <surface tension liquid-gas>
64.3 ± 1.3 mN/m

$$$$

Task: Item CCCCCCCCCCCCCCCC[N+](C)(C)C.[Br-] [N,N,N-trimethyl-1-hexadecanaminium bromide] + O has what recorded surface tension liquid-gas?
Result: 66.41 ± 1.3 mN/m
